B1: HDV Ribozyme (parent)
chain: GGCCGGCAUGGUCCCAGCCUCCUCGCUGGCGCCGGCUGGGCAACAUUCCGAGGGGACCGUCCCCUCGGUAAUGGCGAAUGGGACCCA

# Variants of: B1
# assay_remarks: self-cleavage, relative activity (ratio to wild type); higher = more cleavage; co-transcriptional
property_label: self-cleavage
Form rule: numeric answer, no unit written next to it.

In: Provide measured self-cleavage value, entry: G52A G68C
Out: 0.436

In: For the variant A16G C63G , give its reported self-cleavage.
Out: 0.767

In: Report self-cleavage for G17A U69A
Out: 0.731

In: Give the measured self-cleavage for U9G A78U
Out: 0.0692

In: Supply self-cleavage value. Item: C3A G39C
Out: 0.0196

In: Given U12G A51U , respond with its self-cleavage.
Out: 1.13

In: Answer with the recorded self-cleavage of C61G C64U only.
Out: 0.755

In: Given the variant G28A U37A , write its reported self-cleavage.
Out: 0.0773

In: Supply self-cleavage value. Item: C24G A78G
Out: 0.173

In: Determine its reported self-cleavage: C62U A78U
Out: 0.282

In: Tell us which self-cleavage value is on record for G68U G73C
Out: 0.205

In: Identify measured self-cleavage associated with A70G A77G
Out: 0.831

In: Supply self-cleavage value. Item: G55C C85A
Out: 0.752

In: Respond only with self-cleavage recorded for C33A C84G
Out: 0.219

In: Please supply the value of reported self-cleavage for the item C36U C75A
Out: 0.203

In: State, in one line, measured self-cleavage of C21U A78C
Out: 0.058

In: Using known records, supply self-cleavage for C75U G80C
Out: 0.142

In: Input G68C A71G , output reported self-cleavage.
Out: 0.831

In: Fill in reported self-cleavage for this entry: G35A C63G
Out: 0.346

In: For the variant C41A A42U , report self-cleavage.
Out: 0.743

In: # return recorded self-cleavage for entry G52C G81A
Out: 0.563

In: Query self-cleavage for U9C G53C
Out: 1.15

In: State, in one line, measured self-cleavage of G17C G67A
Out: 0.249

In: Please list self-cleavage recorded for the variant G25C C64G
Out: 0.0573

In: Look up and state reported self-cleavage for A83G A87G
Out: 0.733

In: Give the reported value of self-cleavage for this record: C30G G82C
Out: 0.0326

In: Quote self-cleavage reported for C32G G73U please.
Out: 0.0692

In: Give reported self-cleavage value for G5A G28C
Out: 0.104

In: Read off the recorded self-cleavage for G10U A77C
Out: 0.0396

In: State its self-cleavage for this variant: C57U C58G
Out: 0.762

In: For the variant U60A C61G , give its reported self-cleavage.
Out: 1.19

In: Given A43G C61G , respond with its self-cleavage.
Out: 0.739

In: Give reported self-cleavage value for C48G A71G
Out: 0.962

In: Give the value of self-cleavage reported for the following: U20A U46G
Out: 0.166

In: Dear colleague, please send me the reported self-cleavage for U12C A77U when you can.
Out: 0.289

In: Give the measured self-cleavage for C32G C75U
Out: 0.0468

In: Return self-cleavage (reported value) for this variant: C15A C18U
Out: 0.295

In: Retrieve self-cleavage measured for G2C C21U and print it.
Out: 0.0615

In: Complete the entry with self-cleavage for C30U G76A
Out: 0.862

In: Tell us which self-cleavage value is on record for U20G C22A
Out: 0.185

In: Give reported self-cleavage value for G1A G2A
Out: 0.457

In: Look up self-cleavage of G52U A83U and report it.
Out: 0.494

In: Provide self-cleavage value for the following variant: G11U C75U
Out: 0.0422

In: Give self-cleavage for U60C G67C
Out: 0.554

In: Assign self-cleavage to the following record: G68U U69C
Out: 0.935

In: Provide only the value of recorded self-cleavage for C48A G52U
Out: 0.974

In: Note self-cleavage for the variant shown: C18G C26G
Out: 0.0831

In: Specify self-cleavage for C32U U37G and stop.
Out: 0.166

In: Read the entry C33U C62U and write its reported self-cleavage.
Out: 0.816

In: Please give the documented self-cleavage of C62G G68U
Out: 0.425

In: Tell me measured self-cleavage for G40A G50A please.
Out: 0.884

In: Check the records and state self-cleavage for G55U U72A
Out: 0.648

In: Give self-cleavage for C32G C86U
Out: 0.203

In: Tell us which self-cleavage value is on record for G67A G81A
Out: 0.302

In: Look up and state reported self-cleavage for G2C C21G
Out: 0.0396

In: Read the entry C15U G34C and write its reported self-cleavage.
Out: 0.268

In: Please give measured self-cleavage of the following entry: C14A G59A
Out: 0.762

In: Return self-cleavage (reported value) for this variant: G31U G38C
Out: 0.148

In: Tell us which self-cleavage value is on record for C15A A70C
Out: 0.554

In: Respond only with self-cleavage recorded for G10U G31U
Out: 0.181

In: Provide only the value of recorded self-cleavage for C44G C75A
Out: 0.406

In: Give recorded self-cleavage. G52C U72C
Out: 0.332

In: Please supply the value of reported self-cleavage for the item G52A C57U
Out: 1.06

In: Answer with reported self-cleavage of G34U G54U
Out: 0.0923

In: // fetch self-cleavage given entry C18A U69A
Out: 0.19

In: Output self-cleavage of A71U G73C
Out: 0.54

In: Item G34C C36G : provide self-cleavage
Out: 0.095

In: Return value of self-cleavage for input G35C G80C , no commentary.
Out: 0.0992

In: Give reported self-cleavage value for G39U G40A
Out: 0.807

In: Provide measured self-cleavage value, entry: C22A U27A
Out: 0.0573

In: Give reported self-cleavage value for A8G G28A
Out: 0.166

In: Read the entry G34C G80C and write its reported self-cleavage.
Out: 0.23

In: Tell us which self-cleavage value is on record for C14A U27G
Out: 0.895

In: Return value of self-cleavage for input A8C G55A , no commentary.
Out: 0.636

In: Quick one: give measured self-cleavage for G11U C41A
Out: 0.201

In: Look up self-cleavage of U23C C26G and report it.
Out: 1.05

In: Using known records, supply self-cleavage for A83C A87C
Out: 0.499
